This collection of values is drawn from ChEMBL document CHEMBL3102781.

# target-entity: Nicotinic acetylcholine receptor alpha4/beta2/alpha5 (Homo sapiens) (UniProt P17787+P43681+P30532)
# assay-text: Positive allosteric modulation of human alpha4beta2alpha5 nACHR expressed in HEK-tsA201 cells assessed as potentiation of nicotine-induced current preincubated for 15 mins followed by nicotine-treatment by fluorometric analysis relative to NS9283
# Type: cell-based
metric: Emax

(I) N#Cc1cccc(-n2nnc(-c3cccnc3)n2)c1
(II) c1cncc(-c2noc(-c3cccnc3)n2)c1
Problem: Quick one: lower Emax, I or II ? Mark your selection by writing its label.
Result: II

(a) O=[N+]([O-])c1cccc(-c2nc(-c3cccnc3)no2)c1
(b) O=[N+]([O-])c1ccc(-c2nc(-c3cccnc3)no2)cc1
(c) c1cncc(-c2nnn(-c3cccnc3)n2)c1
Problem: Hi! Can you put these in order of Emax, lowest number first? Reply format: the labels, ordered as requested.
Result: b, a, c
(b: 0.81, a: 1.2, c: 1.9)
